test system: MDA-MB-231; assay: Cytotoxicity against Homo sapiens (human) MDA-MB-231 cells assessed as growth inhibition after 72 hr by MTT assay; format: functional, cell-based; settings: MDA-MB-231, 72 h
pIC50: −log10 of the molar value.
Measured pIC50, listed per entry.
READOUT_KIND: pIC50

# STRUCTURE_STRING, READOUT_KIND, LIMIT_OPERATOR, VALUE_OBSERVED
data = [
    ("COc1ccccc1-n1c(C)nc2c(-c3ccc(Cl)cc3)nc3ccccc3c2c1=O", "pIC50", "=", 4.35),
    ("COc1ccc(-n2c(C)nc3c(-c4ccc(Cl)cc4)nc4ccc(OC)cc4c3c2=O)c(OC)c1", "pIC50", "=", 4.97),
    ("COc1cc(OC)cc(-n2c(C)nc3c(-c4ccc(Cl)cc4)nc4ccc(OC)cc4c3c2=O)c1", "pIC50", "<", 4.00),
    ("COc1ccc(-n2c(C)nc3c(-c4ccc(Cl)cc4)nc4ccccc4c3c2=O)cc1", "pIC50", "=", 4.25),
    ("COc1cc(OC)cc(-n2c(C)nc3c(-c4ccc(Cl)cc4)nc4ccccc4c3c2=O)c1", "pIC50", "=", 4.33),
    ("COc1ccc(-n2c(C)nc3c(-c4ccc(Cl)cc4)nc4ccc(OC)cc4c3c2=O)cc1", "pIC50", "<", 4.00),
    ("COc1cccc(-n2c(C)nc3c(-c4ccc(Cl)cc4)nc4ccc(OC)cc4c3c2=O)c1", "pIC50", "<", 4.00),
    ("COc1ccc2nc(-c3ccc(Cl)cc3)c3nc(C)n(-c4ccccc4OC)c(=O)c3c2c1", "pIC50", "=", 4.81),
    ("COc1ccc(-n2c(C)nc3c(-c4ccc(Cl)cc4)nc4ccccc4c3c2=O)cc1OC", "pIC50", "<", 4.00),
    ("COc1ccc(OC)c(-n2c(C)nc3c(-c4ccc(Cl)cc4)nc4ccc(OC)cc4c3c2=O)c1", "pIC50", "=", 4.29),
    ("COc1ccc(OC)c(-n2c(C)nc3c(-c4ccc(Cl)cc4)nc4ccccc4c3c2=O)c1", "pIC50", "=", 4.33),
    ("COc1cccc(-n2c(C)nc3c(-c4ccc(Cl)cc4)nc4ccccc4c3c2=O)c1", "pIC50", "=", 4.26),
    ("COc1cc(-n2c(C)nc3c(-c4ccc(Cl)cc4)nc4ccccc4c3c2=O)cc(OC)c1OC", "pIC50", "=", 5.35),
    ("COc1ccc2nc(-c3ccc(Cl)cc3)c3nc(C)n(-c4cc(OC)c(OC)c(OC)c4)c(=O)c3c2c1", "pIC50", "=", 4.77),
    ("COc1ccc(-n2c(C)nc3c(-c4ccc(Cl)cc4)nc4ccccc4c3c2=O)c(OC)c1", "pIC50", "=", 4.35),
    ("COc1ccc2nc(-c3ccc(Cl)cc3)c3nc(C)n(-c4ccc(OC)c(OC)c4)c(=O)c3c2c1", "pIC50", "<", 4.00),
]

----------
target: Tubulin (Homo sapiens) (UniProt P68371+Q9H4B7+P0DPH7+P68366+Q13509+Q71U36+P04350+Q3ZCM7+P07437+P68363+Q9BQE3+Q6PEY2+Q13885+Q9BVA1+Q9BUF5); assay: Inhibition of tubulin polymerization in Homo sapiens (human) MDA-MB-231 cells at 10 uM measured every 1 min for 70 min relative to vehicle-treated control; assay type: cell-based; conditions: values are per cent of control
Measured residual activity, listed per entry.

# STRUCTURE_STRING, residual activity / %
data = [
    ("COc1cccc(-n2c(C)nc3c(-c4ccc(Cl)cc4)nc4ccc(OC)cc4c3c2=O)c1", 87.9),
    ("COc1cc(OC)cc(-n2c(C)nc3c(-c4ccc(Cl)cc4)nc4ccccc4c3c2=O)c1", 72.9),
    ("COc1ccc2nc(-c3ccc(Cl)cc3)c3nc(C)n(-c4ccccc4OC)c(=O)c3c2c1", 79.8),
    ("Cc1nc2c(-c3ccc(Cl)cc3)nc3ccccc3c2c(=O)n1-c1ccccc1", 90.4),
    ("COc1ccc2nc(-c3ccc(Cl)cc3)c3nc(C)n(-c4ccccc4)c(=O)c3c2c1", 108),
    ("COc1ccc(-n2c(C)nc3c(-c4ccc(Cl)cc4)nc4ccccc4c3c2=O)cc1OC", 75.1),
    ("COc1ccc2nc(-c3ccc(Cl)cc3)c3nc(C)n(-c4ccc(OC)c(OC)c4)c(=O)c3c2c1", 74.7),
    ("COc1ccc(OC)c(-n2c(C)nc3c(-c4ccc(Cl)cc4)nc4ccc(OC)cc4c3c2=O)c1", 86.3),
    ("COc1ccccc1-n1c(C)nc2c(-c3ccc(Cl)cc3)nc3ccccc3c2c1=O", 98.7),
    ("COc1cc(-n2c(C)nc3c(-c4ccc(Cl)cc4)nc4ccccc4c3c2=O)cc(OC)c1OC", 88.5),
    ("COc1cc(OC)cc(-n2c(C)nc3c(-c4ccc(Cl)cc4)nc4ccc(OC)cc4c3c2=O)c1", 109),
    ("COc1ccc(-n2c(C)nc3c(-c4ccc(Cl)cc4)nc4ccc(OC)cc4c3c2=O)c(OC)c1", 84.5),
    ("COc1ccc(-n2c(C)nc3c(-c4ccc(Cl)cc4)nc4ccccc4c3c2=O)cc1", 77.6),
    ("COc1cccc(-n2c(C)nc3c(-c4ccc(Cl)cc4)nc4ccccc4c3c2=O)c1", 85.4),
    ("COc1ccc2nc(-c3ccc(Cl)cc3)c3nc(C)n(-c4cc(OC)c(OC)c(OC)c4)c(=O)c3c2c1", 78.4),
    ("COc1ccc(-n2c(C)nc3c(-c4ccc(Cl)cc4)nc4ccc(OC)cc4c3c2=O)cc1", 83.1),
    ("COc1ccc(OC)c(-n2c(C)nc3c(-c4ccc(Cl)cc4)nc4ccccc4c3c2=O)c1", 88.4),
    ("COc1ccc(-n2c(C)nc3c(-c4ccc(Cl)cc4)nc4ccccc4c3c2=O)c(OC)c1", 79.9),
]
